Top (MFI) for assorted binders
Target: T1, human SLC34A2 (human, UniProt O95436 1-690)
T1 construct: whole, on cells; also called human solute carrier 34 A2; NaPi2b
T1 sequence (looked up): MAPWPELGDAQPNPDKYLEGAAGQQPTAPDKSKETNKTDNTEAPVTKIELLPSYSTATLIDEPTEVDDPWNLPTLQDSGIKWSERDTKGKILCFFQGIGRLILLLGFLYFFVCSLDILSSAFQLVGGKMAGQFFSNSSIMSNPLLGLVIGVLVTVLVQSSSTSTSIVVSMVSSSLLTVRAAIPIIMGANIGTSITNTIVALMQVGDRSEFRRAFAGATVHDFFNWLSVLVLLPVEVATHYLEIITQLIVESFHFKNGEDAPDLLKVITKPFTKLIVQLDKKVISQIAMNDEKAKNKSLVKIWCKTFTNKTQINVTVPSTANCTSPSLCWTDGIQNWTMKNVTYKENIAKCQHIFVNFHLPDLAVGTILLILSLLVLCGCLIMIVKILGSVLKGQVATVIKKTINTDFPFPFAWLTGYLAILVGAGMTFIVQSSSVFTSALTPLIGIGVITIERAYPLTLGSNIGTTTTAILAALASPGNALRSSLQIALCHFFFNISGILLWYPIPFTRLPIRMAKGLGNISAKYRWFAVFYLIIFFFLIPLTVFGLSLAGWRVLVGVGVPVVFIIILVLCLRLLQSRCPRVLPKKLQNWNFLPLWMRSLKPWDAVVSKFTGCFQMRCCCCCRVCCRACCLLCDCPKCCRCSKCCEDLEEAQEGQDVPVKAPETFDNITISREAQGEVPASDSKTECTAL
Experiment: FACS, HEK293/human SLC34A2 cells
// units = MFI; emit number, no label

Observe how each entry below is paired with its result.
{"binder": "xi90G10H7 hIgG1 (antibody, V domains shown, chimeric, hIgG1) VH: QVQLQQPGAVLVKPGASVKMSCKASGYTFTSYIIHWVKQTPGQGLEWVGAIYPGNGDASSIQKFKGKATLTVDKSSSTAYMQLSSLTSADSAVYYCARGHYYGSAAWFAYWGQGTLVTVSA VL: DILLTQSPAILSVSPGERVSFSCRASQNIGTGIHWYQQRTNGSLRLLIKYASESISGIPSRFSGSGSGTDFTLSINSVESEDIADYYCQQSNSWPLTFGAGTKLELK", "readout.type": "Top (MFI)", "test.result": 114000}
{"binder": "xi62C10B3D2 hIgG1 (antibody, V domains shown, chimeric, hIgG1) VH: QVHQQQSGPELVKPGASVRISCKASGYTFTSYYIHWVKQRPGQGLEWIGCIYPGNLFTKYNEKFKDKATLTADTSSTTAYMHLSSLTSEDSAVYFCARFLNWNAWYFDVWGAGTTVSVSS VL: DVLMTQTPLSLPVSLGDQASISCRSSQSIEHSNGNTNLEWYLQKPGQSPRLLIYKVSNRFSGVPDRFSGSGSGTDFTLKITGVEAEDLGVYYCFQGSHFPWTFGGGTKLEIK", "readout.type": "Top (MFI)", "test.result": 128000}

Shifting focus to the binder that follows.
The value of Top (MFI) measured for the binder xi71F7D4 hIgG1 (antibody, V domains shown, chimeric, hIgG1) VH: DVKLVESGGDLVKLGGSLKLSCAASGFTFSNYYMSWVRQTPEKRLELVAVINSNGGTTYYPDNMKGRFTISRDNAKNTLYLQTSSLKSEDTALYYCGRHEHYYGTNIAWFAYWGQGTLVTVSA VL: DIVMTQSHKFMSTSVGDRVSITCKASQDVTTAVAWYQQKPGQSPKLLIYWASTRHTGVPDRFTGSGSGTDHTLTISSVQAEDLALYYCQQHYSTPVTFGGGTKLEIK turned out to be 47900

Where do the numbers come from? From patent US20240301052A1.
